// values below are reported EC50
Molecular target: T1, H7CRECD human IgG1 Fc fusion protein (human, UniProt Q96BF3 23-150)
T1 construct: also called H7CR fusion protein; not shown: human IgG1 Fc
T1 sequence: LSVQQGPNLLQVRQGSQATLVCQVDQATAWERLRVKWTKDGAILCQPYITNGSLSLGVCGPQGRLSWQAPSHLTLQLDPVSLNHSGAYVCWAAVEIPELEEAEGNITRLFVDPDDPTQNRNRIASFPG
Assay: ELISA, H7CRECD human IgG1 Fc immobilized, anti-human IgG4 HRP detection
Kindly answer with a numeric value in pM, unit omitted.

// below: answered binders
# BINDER, EC50, pM
data = [
    ("1.3 humanized variant V8 (heavy 1C / light 1B) (antibody, V domains shown, Variable domains only; detected with anti-human IgG4 HRP) VH: QVQLQESGPGLVKPSQTLSLTCTVSGFSISTSGYYWSWIRQFPGKRLEWMGYINYGGGTSYNPSLKSRVTISRDTSKNQFSLKLSSVTAADTATYCCATMADRFAFFDVWGQGTMVTVSS VL: DIVMTQSPDSLAVSLGERATINCKSSQSLFSSNTNRNYLNWYQQKPGQSPKLLIYHASTRLSGVPDRFSGSGSGTDFTLTISSLQAEDVADYYCQHHYETPLTFGDGTKLEIK", 740),
    ("1.3 humanized variant V12 (heavy 1C / light 1C) (antibody, V domains shown, Variable domains only; detected with anti-human IgG4 HRP) VH: QVQLQESGPGLVKPSQTLSLTCTVSGFSISTSGYYWSWIRQFPGKRLEWMGYINYGGGTSYNPSLKSRVTISRDTSKNQFSLKLSSVTAADTATYCCATMADRFAFFDVWGQGTMVTVSS VL: DIVMTQSPDSLAVSLGERATINCLSSQSLFSSNTNRNYLNWYLQKPGQSPKLLIYHASTRLSGVPDRFIGSGSGTDFTLTISSLQAEDVGDYYCQHHYETPLTFGDGTKLEIK", 750),
]

# context switch: different binder, same EC50
Name the recorded EC50 for 1.3 humanized variant V3 (heavy 1C / light 1A) (antibody, V domains shown, Variable domains only; detected with anti-human IgG4 HRP) VH: QVQLQESGPGLVKPSQTLSLTCTVSGFSISTSGYYWSWIRQFPGKRLEWMGYINYGGGTSYNPSLKSRVTISRDTSKNQFSLKLSSVTAADTATYCCATMADRFAFFDVWGQGTMVTVSS VL: DIVMTQSPDSLAVSLGERATINCKSSQSLFSSNTNRNYLAWYQQKPGQPPKLLIYHASTRESGVPDRFSGSGSGTDFTLTISSLQAEDVAVYYCQHHYETPLTFGQGTKLEIK .
380
